Tested On: human ether-à-go-go-related gene (hERG) potassium channel (human);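 also: peak tail current of the secondary pulse compared with the same well before compound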
Assay Name: primary screen, population patch clamp on CHO cells stably expressing hERG; higher = less effect of the substance
Hit rate of the full screen: of about 310,000 compounds, about 14,000 (4.5%) showed an effect of 50% or more. Effects have a minus sign here. The sample holds strong results, similar compounds and a random draw of the others, so the mix is not that of the screen.
hERG current change (%, negative = inhibition) at 10uM for assorted compounds
Quantity Measured: hERG current change (%, negative = inhibition) at 10uM (%)

[[record]]
compound = "Nc1c(Cl)ncnc1N/N=C/c1ccnc2ccccc12"
assay_result = 1.91

[[record]]
compound = "C=CCSc1nnc2nc3c(nn12)c1cc(C)ccc1n3CC=C"
assay_result = -55.1

[[record]]
compound = "COc1ccc(C2(C(=O)Nc3ccc(C)c(C)c3)CCOCC2)cc1"
assay_result = 6.97

[[record]]
compound = "COc1ccc(C2N(C(=O)C(F)(F)F)C(C)CN2S(=O)(=O)c2ccc(C)cc2)cc1 (stereo not shown)"
assay_result = 11.2

[[record]]
compound = "O=C(CN1C(=O)NC2(CCCCCC2)C1=O)Nc1ccc2c(c1)CCC2"
assay_result = -5.72

[[record]]
compound = "CC(=O)c1ccc(N2CCN(CC(=O)N(C3CC3)C3CCS(=O)(=O)C3)CC2)c(F)c1 (stereo not shown)"
assay_result = -12

[[record]]
compound = "CCCC(=O)N(CCc1ccc(OC)cc1)Cc1nc2ccccc2c(=O)[nH]1"
assay_result = -8.61

[[record]]
compound = "Cc1cc(C)nc(N/C(=N\\S(=O)(=O)Cc2ccccc2)Nc2cccc(Cl)c2C)n1"
assay_result = -3.72

[[record]]
compound = "COc1cc(OC)cc(C(=O)NCC(=O)OCC(=O)C(C)(C)C)c1"
assay_result = 16.6

[[record]]
compound = "C=CCSc1nnc2nc3[nH]c4c(C)cccc4c3nn12"
assay_result = 4.32


* * *

hERG current change (%, negative = inhibition) at 10uM for assorted compounds
Tested On: human ether-à-go-go-related gene (hERG) potassium channel (human);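 also: peak tail current of the secondary pulse compared with the same well before compound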
Assay Name: primary screen, population patch clamp on CHO cells stably expressing hERG; higher = less effect of the substance
About 14,000 (4.5%) of roughly 310,000 compounds showed an effect of 50% or more. Effects have a minus sign here. Shown is part of a subset that was picked to be rich in strong results.
Quantity Measured: hERG current change (%, negative = inhibition) at 10uM (%)

[[record]]
compound = "COc1ccc(-n2ccc3ccccc32)cc1"
tested_on = "human ether-à-go-go-related gene (hERG) potassium channel (human)"
assay_result = 13

[[record]]
compound = "Cc1cc(NS(=O)(=O)c2cccc([N+](=O)[O-])c2)no1"
tested_on = "human ether-à-go-go-related gene (hERG) potassium channel (human)"
assay_result = 28.8

[[record]]
compound = "Cc1ccc(S(=O)(=O)NCCC(c2ccccc2)c2ccco2)cc1 (stereo not shown)"
tested_on = "human ether-à-go-go-related gene (hERG) potassium channel (human)"
assay_result = 0.23

[[record]]
compound = "COc1ccc(C(=O)N/N=C/c2ccc(OC)c(COc3ccc(F)cc3F)c2)cc1"
tested_on = "human ether-à-go-go-related gene (hERG) potassium channel (human)"
assay_result = 3.74

[[record]]
compound = "COc1ccc(C(=O)N/N=C/c2ccc(OC)c(COc3ccc(F)cc3)c2)cc1"
tested_on = "human ether-à-go-go-related gene (hERG) potassium channel (human)"
assay_result = -35.2

[[record]]
compound = "Cc1cc(C)n2nc(N)c(N=Nc3ccccc3)c2n1"
tested_on = "human ether-à-go-go-related gene (hERG) potassium channel (human)"
assay_result = -3.32

[[record]]
compound = "CN(C)S(=O)(=O)N1CCN(C(=O)N2CCCCCC2)CC1"
tested_on = "human ether-à-go-go-related gene (hERG) potassium channel (human)"
assay_result = -12.2

[[record]]
compound = "Cc1ccc(-n2cnnn2)cc1Cl"
tested_on = "human ether-à-go-go-related gene (hERG) potassium channel (human)"
assay_result = -18.8

[[record]]
compound = "Cc1ccc(C)c(C(=O)CN2C(=O)NC3(CCC(C)CC3)C2=O)c1 (stereo not shown)"
tested_on = "human ether-à-go-go-related gene (hERG) potassium channel (human)"
assay_result = -18.3

[[record]]
compound = "Cc1cc(C)cc(OCC(=O)N2N=C(C(F)(F)F)CC2(O)C(C)(C)C)c1 (stereo not shown)"
tested_on = "human ether-à-go-go-related gene (hERG) potassium channel (human)"
assay_result = 3.64


* * *

Tested On: human ether-à-go-go-related gene (hERG) potassium channel (human, UniProt Q12809);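 also: peak tail current of the secondary pulse compared with the same well before compound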
Sequence (Q12809 whole entry, looked up): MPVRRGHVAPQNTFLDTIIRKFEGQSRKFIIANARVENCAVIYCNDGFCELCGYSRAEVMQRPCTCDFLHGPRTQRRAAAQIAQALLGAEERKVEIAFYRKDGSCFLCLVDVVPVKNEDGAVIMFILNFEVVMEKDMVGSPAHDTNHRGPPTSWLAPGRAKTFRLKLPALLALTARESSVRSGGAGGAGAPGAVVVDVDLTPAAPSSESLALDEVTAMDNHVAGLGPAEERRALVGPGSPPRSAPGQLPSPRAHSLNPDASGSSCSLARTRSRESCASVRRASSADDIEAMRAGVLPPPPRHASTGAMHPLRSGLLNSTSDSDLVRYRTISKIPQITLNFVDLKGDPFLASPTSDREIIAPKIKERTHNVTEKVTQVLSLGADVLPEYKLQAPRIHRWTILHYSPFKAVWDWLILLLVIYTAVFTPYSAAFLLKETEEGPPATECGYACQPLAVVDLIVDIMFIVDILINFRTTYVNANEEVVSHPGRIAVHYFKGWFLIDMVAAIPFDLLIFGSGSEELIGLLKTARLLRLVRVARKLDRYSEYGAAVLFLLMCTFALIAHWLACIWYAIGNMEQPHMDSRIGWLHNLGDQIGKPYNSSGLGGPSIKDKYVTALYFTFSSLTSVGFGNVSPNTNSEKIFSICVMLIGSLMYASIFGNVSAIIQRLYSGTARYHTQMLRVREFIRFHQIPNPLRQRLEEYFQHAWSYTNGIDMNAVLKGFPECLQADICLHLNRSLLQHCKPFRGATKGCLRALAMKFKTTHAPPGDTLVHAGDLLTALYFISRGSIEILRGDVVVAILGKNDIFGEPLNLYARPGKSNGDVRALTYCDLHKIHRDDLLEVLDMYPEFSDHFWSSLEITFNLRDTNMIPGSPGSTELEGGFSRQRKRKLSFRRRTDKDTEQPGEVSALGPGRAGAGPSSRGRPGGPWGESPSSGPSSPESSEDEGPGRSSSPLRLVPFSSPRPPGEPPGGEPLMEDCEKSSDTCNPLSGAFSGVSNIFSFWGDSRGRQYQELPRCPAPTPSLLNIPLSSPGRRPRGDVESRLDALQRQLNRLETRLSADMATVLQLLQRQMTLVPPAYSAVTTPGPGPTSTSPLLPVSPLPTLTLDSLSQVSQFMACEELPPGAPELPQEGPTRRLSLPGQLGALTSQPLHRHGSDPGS
Assay Name: primary screen, population patch clamp on CHO cells stably expressing hERG; higher = less effect of the substance
Protocol: Briefly, Chinese hamster ovary (CHO) cells stably expressing the hERG channel were dislodged from tissue culture flasks and dispensed into PPC plates. […] During the recording, background leak currents were estimated by a 100 ms step to -80 mV from an initial holding potential of -70 mV and subtracted from the subsequent current measurement. The campaign was conducted in two phases using slight differences in recording protocol. […]
Screen size: about 310,000 compounds; about 14,000 (4.5%) showed an effect of 50% or more. Effects have a minus sign here. The entries come from a sample that favours strong results as a whole.
Quantity Measured: hERG current change (%, negative = inhibition) at 10uM (%)

[[record]]
compound = "Nc1ccc(-c2cnc3ccccc3n2)cc1"
assay_result = 0.217

[[record]]
compound = "O=C1CN(C(=O)COc2ccc(Cl)cc2Cl)c2ccccc2N1"
assay_result = 14.2

[[record]]
compound = "CC(NC(=O)c1cc2c(=O)n3ccccc3nc2n(CC2CCCO2)c1=N)c1ccccc1 (centres unmarked)"
assay_result = -75.2

[[record]]
compound = "Cc1ccc(S(=O)(=O)N2c3ccccc3OCC2c2ccccc2)cc1 (centres unmarked)"
assay_result = 23

[[record]]
compound = "Cc1ccc(S(=O)(=O)c2cc3c(=O)n4ccccc4nc3n(C)c2=N)cc1C"
assay_result = -2.47

[[record]]
compound = "CC1(C)Cc2nc3oc4c(SCC(N)=O)ncnc4c3cc2CO1"
assay_result = 4.95

[[record]]
compound = "O=C1CN(C(=O)COc2ccc([N+](=O)[O-])cc2Cl)c2ccccc2N1"
assay_result = -61.2

[[record]]
compound = "Cn1cc(C(=O)NC2CCCCC2)c(=O)c2cc(S(=O)(=O)N3CCOCC3)ccc21"
assay_result = 11.8

[[record]]
compound = "O=C(CCNS(=O)(=O)c1ccccc1)OCC(=O)c1ccc(Cl)cc1"
assay_result = -30

[[record]]
compound = "N=c1c(C(=O)NC2CCCC2)cc2c(=O)n3ccccc3nc2n1CC1CCCO1 (centres unmarked)"
assay_result = -83.7

[[record]]
compound = "Nn1c(Cc2cccc3ccccc23)nnc1SC1CCOC1=O (centres unmarked)"
assay_result = -0.158

[[record]]
compound = "N=c1c(C(=O)NC2CCCCC2)cc2c(=O)n3ccccc3nc2n1CC1CCCO1 (centres unmarked)"
assay_result = -74.9

[[record]]
compound = "COCCNC(=O)CSc1nc2ccccc2c(=O)n1CC1CCCO1 (centres unmarked)"
assay_result = -11.9

[[record]]
compound = "Cc1ccc2nc(Br)c3c(c2c1)OC(CBr)C3 (centres unmarked)"
assay_result = -33.6

[[record]]
compound = "CCOC(=O)C1CCN(S(=O)(=O)c2ccc(OCC(=O)OC)cc2)CC1"
assay_result = -9.54

[[record]]
compound = "CCCCCCCCN1C(=O)N(C)C(N(O)C(=O)NC)C1(C)C (centres unmarked)"
assay_result = 8.37

[[record]]
compound = "CC(=O)Nc1ccc(Nc2ccc3c4c(cc(=O)n3C)-c3ccccc3C(=O)c24)cc1"
assay_result = 9.74

[[record]]
compound = "C/C(=N\\NC(=S)NCc1ccccc1)c1ccc2ccccc2c1"
assay_result = 15.9

[[record]]
compound = "CCN(CC)C(=S)SCC(=O)Nc1ccc(S(N)(=O)=O)cc1"
assay_result = 3.17

[[record]]
compound = "N=c1c(S(=O)(=O)c2ccccc2)cc2c(=O)n3ccccc3nc2n1CC1CCCO1 (centres unmarked)"
assay_result = -34


* * *

hERG current change (%, negative = inhibition) at 10uM for assorted compounds
Tested On: human ether-à-go-go-related gene (hERG) potassium channel (human, UniProt Q12809);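 also: peak tail current of the secondary pulse compared with the same well before compound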
Assay Name: primary screen, population patch clamp on CHO cells stably expressing hERG; higher = less effect of the substance
Among all 310,000 compounds or so, about 14,000 (4.5%) showed an effect of 50% or more. Effects have a minus sign here. The sample as a whole holds a higher share of strong results than the screen did.
Quantity Measured: hERG current change (%, negative = inhibition) at 10uM (%)

[[record]]
compound = "O=C1CN(C(=O)c2c(F)cccc2F)C(c2ccc(F)cc2)c2cc(Br)ccc2N1 (stereo not shown)"
display_unit = "%"
assay_result = -35.8

[[record]]
compound = "Cc1ccc2c(c1)C(c1ccc(F)cc1)N(C(=O)c1cc3ccccc3oc1=O)CC(=O)N2 (stereo not shown)"
display_unit = "%"
assay_result = -55

[[record]]
compound = "O=C1CN(C(=O)c2cc3ccccc3oc2=O)C(c2ccccc2)c2cc(F)ccc2N1 (stereo not shown)"
display_unit = "%"
assay_result = -33.9

[[record]]
compound = "O=C1CN(C(=O)c2cc3ccccc3oc2=O)C(c2ccc(F)cc2)c2cc(F)ccc2N1 (stereo not shown)"
display_unit = "%"
assay_result = -32.1

